property_label: melting point

>>> endpoint_result("COc1ccc(C2CC(c3ccc(OC)c(OC)c3)=NN2c2ccc(C(=O)O)cc2)cc1 (stereo unspecified)")
"141 °C"
>>> endpoint_result("CNC(=O)c1ccc(-c2cnc3oc(=O)n(Cc4cccc(OC)c4)c3n2)cc1")
"168 to 169 °C"
>>> endpoint_result("NS(=O)(=O)N1CC2(CCN(C(=O)Nc3nnc(-c4ccccc4)s3)CC2)c2ccccc21")
"> 300 °C"
>>> endpoint_result("CS(=O)(=O)c1ccc(-c2nc(C(F)(F)F)[nH]c2-c2ccccc2)cc1")
"228 to 230 °C"

State its melting point for this molecule: `Cc1c(Br)c(=O)n(C2CCCC2)c2nc(Nc3ccccn3)ncc12` 267 to 268 °C

Name the recorded melting point of the item `CC#CCOc1ccc(S(=O)(=O)C2(C(=O)NO)CCN(Cc3cccnc3)CC2)cc1` in your answer. 115 °C

Give melting point for the following molecule: `C=CCN1CCc2c(sc(N)c2C(=O)c2ccc(Cl)cc2)C1` 118 to 120 °C

In one line, give reported melting point of the entry `NCc1ccccc1NC1CCN(Cc2ccccc2)CC1` . 117 to 118 °C
